# EXPERIMENT NOTES: NCI Yeast Anticancer Drug Screen. Data for the bub3 strain (AID 167)
# CONDITION DESCRIPTION: S. cerevisiae bub3 mutant strain, at 50.0 µM
This is part of a sample that, as a whole, favours compounds with a hit. Of some 79,000 tested, about 15% had one in any assay. Calls of active or inactive are those of the source. Rule as the data show it: active = growth inhibition above about 70%; inactive = the rest.
// allowed return values: TRUE (active), FALSE (inactive)

Incoming: Field: outcome | Entry: C[As+](c1ccccc1)(c1ccccc1)c1cccc2ccccc12
Outgoing: FALSE

Incoming: Answer briefly: the call reported for N#CCC(=O)[O][Sn]([c]1ccccc1)([c]1ccccc1)[c]1ccccc1 in this assay.
Outgoing: TRUE

Incoming: Each compound tested received a call. Report the one for COc1ccc(C(CC(=O)O)CC(=O)c2ccc(N(CCCl)CCCl)cc2)cc1 (stereo unspecified) .
Outgoing: TRUE

Incoming: Test call for this compound, please: C[N+]1(C)C2CCC1CC(O)C2 (stereo unspecified)
Outgoing: FALSE

Incoming: Write down the call the test reported for this compound. Item: CC1(C)N=C(N)N=C(N)N1c1ccc(CCCCc2cc(Cl)ccc2S(=O)(=O)F)c(Cl)c1
Outgoing: TRUE

Incoming: Each compound tested received a call. Report the one for COc1ccc(C(OCC2OC(n3ccc(Oc4c(F)c(F)c(F)c(F)c4F)nc3=O)CC2OP(OCCC#N)N(C(C)C)C(C)C)(c2ccccc2)c2ccc(OC)cc2)cc1 (stereo unspecified) .
Outgoing: FALSE

----------
Items are presented alongside their recorded growth inhibition.
# EXPERIMENT NOTES: NCI Yeast Anticancer Drug Screen. Data for the sgs1 mgt1 strain (AID 161);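 also: 0% = growth of cultures given vehicle only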
# CONDITION DESCRIPTION: S. cerevisiae sgs1 mgt1 strain, at 50.0 µM, hits give high values
The panel holds about 79,000 compounds, 15% with a hit somewhere; the sample as a whole holds those more often.
Your answer should be a plain number; it is taken to be in %.

>  <MOLECULE>
CC(C)[C@@H]1ON1C(C)c1ccccc1 (some centres undefined)

>  <UNITS>
%

>  <RESULT VALUE>
25.8

$$$$

Incoming: Read off the recorded growth inhibition for CC(=O)OC(C)(C)/C=C/C(=O)[C@](C)(O)[C@H]1[C@H](O)C[C@@]2(C)[C@@H]3CC=C4[C@@H](C=C(O)C(=O)C4(C)C)[C@]3(C)C(=O)C[C@]12C
Outgoing: -14.6

Incoming: Answer with reported growth inhibition of CC1(c2ccccc2)CC12C(=O)NC(=O)NC2=O (centres undefined)
Outgoing: -18.9

Incoming: Look up growth inhibition of O=C(Nc1ccc(N(CCCl)CCCl)cc1)c1ccc([N+](=O)[O-])cc1 and report it.
Outgoing: 3

----------
# EXPERIMENT NOTES: NCI Yeast Anticancer Drug Screen. Data for the mec2-1 strain (AID 157)
# CONDITION DESCRIPTION: S. cerevisiae mec2-1 strain, at 50.0 µM, hits give high values
About 79,000 compounds went through this panel and 15% of them were active in at least one assay; those are over-represented in the sample as a whole.
Below, each of the molecules is paired with its reported growth inhibition value.
Use % as the unit, but write only the number.

Use the examples below as a reference point.
>  <MOLECULE>
CN(C)c1ccc(C(c2c(O)c3ccc(O)cc3oc2=O)c2c(O)c3ccc(O)cc3oc2=O)cc1

>  <PARAMETER MEASURED>
growth inhibition

>  <RESULT VALUE>
7.75

$$$$
>  <MOLECULE>
C/C=C(\C)C1(CC)C(=O)NC(=O)N(C)C1=O (stereo not given)

>  <PARAMETER MEASURED>
growth inhibition

>  <RESULT VALUE>
1.7

$$$$
>  <MOLECULE>
O=C(O)C(F)(F)C(F)(Cl)C(F)(F)C(F)(Cl)C(F)(F)Cl (stereo not given) (tested in a mixture with another compound)

>  <PARAMETER MEASURED>
growth inhibition

>  <RESULT VALUE>
-12.8

$$$$

Incoming: Fill in growth inhibition for record COC(=O)CP(=O)(OC)OC
Outgoing: -24.1

Incoming: Quote growth inhibition reported for O=CC1(c2ccccc2)CCNCC1 please.
Outgoing: 3.85

----------
# EXPERIMENT NOTES: NCI Yeast Anticancer Drug Screen. Data for the mec2-1 strain (AID 157)
# CONDITION DESCRIPTION: S. cerevisiae mec2-1 strain, at 50.0 µM, hits give high values
About 79,000 compounds went through this panel and 15% of them were active in at least one assay; those are over-represented in the sample as a whole. The source made the active and inactive calls. Rule as the data show it: active = growth inhibition above about 70%; inactive = the rest.
PARAMETER MEASURED: growth inhibition

Past entries and their recorded results:
>  <COMPOUND>
S=P12OCCC(CO1)O2 (configuration not stated)

>  <growth inhibition>
-9.35% (inactive)

$$$$
>  <COMPOUND>
ClCCCN1CCN(c2ccccc2Cl)CC1

>  <growth inhibition>
-16.7% (inactive)

$$$$
>  <COMPOUND>
O=C1NC(=O)C(Cc2cccc(OCc3ccccc3)c2)C(=O)N1

>  <growth inhibition>
2.2% (inactive)

$$$$
>  <COMPOUND>
CCCCCC(N)CC(=O)O (configuration not stated)

>  <growth inhibition>
-21.1% (inactive)

$$$$
>  <COMPOUND>
COc1cc2c(cc1O)-c1c(OC)c(O)cc3c1C(C2)N(C)CC3 (configuration not stated)

>  <growth inhibition>
-22.4% (inactive)

$$$$
>  <COMPOUND>
[CH3][Sn]([Cl])([Cl])[c]1ccccc1

>  <growth inhibition>
2.05% (inactive)

$$$$

Incoming: Answer with the recorded growth inhibition of C[Si](C)(C)CN(N=O)C(N)=O only.
Outgoing: 3.4% (inactive)

----------
# EXPERIMENT NOTES: NCI Yeast Anticancer Drug Screen. Data for the cln2 rad14 strain (AID 165);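 also: 0% = growth equal to vehicle treated cultures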
# CONDITION DESCRIPTION: S. cerevisiae cln2 rad14 strain, at 50.0 µM, hits give high values
This is part of a sample that, as a whole, favours compounds with a hit. Of some 79,000 tested, about 15% had one in any assay. Where a SMILES comes first, the peptide text is derived from it. [ ]: non-standard residue; d: D form. The star is where a group is joined. ξ: configuration not given here. X14 = COC1=CC(=O)N(C(=O)C(O*)C(C)C)C1Cc1ccccc1; ξNMe2Val = CC(C)C(C(=O)*)N(C)C; NMeV = CN[CH](C(=O)O)C(C)C
PARAMETER MEASURED: growth inhibition (%)
Write down the numeric answer in % and omit the unit.

>  <COMPOUND>
O=[As](c1ccccc1Br)(c1ccccc1Br)c1ccccc1Br

>  <PARAMETER MEASURED>
growth inhibition

>  <RESULT VALUE>
13.4

$$$$

Incoming: Output growth inhibition of c1cc(C[N+]23CN4CN(CN(C4)C2)C3)cs1
Outgoing: -7.65

Incoming: Answer with reported growth inhibition of CCC1(CCC(C)C)C(=O)NC(=NCCCC(N)C(=O)O)NC1=O (configuration not stated)
Outgoing: 30.3

Incoming: Determine from records and report growth inhibition for CCC(=O)OC1(c2ccccc2)CCN(C/C=C/c2cccc3ccccc23)CC1
Outgoing: 62.8

Incoming: Respond only with growth inhibition recorded for N/C(=N\NS(=O)(=O)c1ccccc1)N[N+](=O)[O-]
Outgoing: -8.55

Incoming: For the compound COC1=CC(=O)N(C(=O)C(OC(=O)C2CCCN2C(=O)C2CCCN2C(=O)C(C(C)C)N(C)C(=O)C(NC(=O)C(C(C)C)N(C)C)C(C)C)C(C)C)C1Cc1ccccc1 (configuration not stated) (ξNMe2Val-V[NMeV]PP-X14; configuration not given here) , give its reported growth inhibition.
Outgoing: -7.6

----------
# EXPERIMENT NOTES: NCI Yeast Anticancer Drug Screen. Data for the sgs1 mgt1 strain (AID 161);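 also: 0% = growth of cultures given vehicle only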
# CONDITION DESCRIPTION: S. cerevisiae sgs1 mgt1 strain, at 50.0 µM, hits give high values
The panel holds about 79,000 compounds, 15% with a hit somewhere; the sample as a whole holds those more often.
A collection of compounds and their measured growth inhibition
Numeric answer only, unit % assumed.

Sample answers from the record:
>  <COMPOUND>
CCCCC(CC)COP(OCC(CC)CCCC)OCC(CC)CCCC (stereo not given)

>  <PARAMETER MEASURED>
growth inhibition

>  <RESULT VALUE>
-18.9

$$$$
>  <COMPOUND>
NNN1CCN(N)CC1

>  <PARAMETER MEASURED>
growth inhibition

>  <RESULT VALUE>
6.35

$$$$
>  <COMPOUND>
[N-]=[N+]=NC(=O)Nc1ccccc1F

>  <PARAMETER MEASURED>
growth inhibition

>  <RESULT VALUE>
-14.6

$$$$
>  <COMPOUND>
O=Cc1ccccc1O.O=Cc1ccccc1O.O=Cc1ccccc1O.[La]

>  <PARAMETER MEASURED>
growth inhibition

>  <RESULT VALUE>
4.7

$$$$

As a next step, examine the compound that follows.
Incoming: Please list growth inhibition recorded for the compound CC1CCC2C(C)C(=O)OC3OC4(C)CCC1C32OO4 (stereo not given)
Outgoing: -8.05
